Listed below are molecules with pIC50 for RNR (RNR1:RNR2 1:1) (Homo sapiens), each taken from published literature.
pIC50: −log10 of the molar value.

Use the examples below as a reference point.
Molecule: COc1c(S(=O)(=O)N[C@H](c2n[nH]c(=O)o2)[C@H](C)c2c(F)ccc3ccccc23)ccc(Cl)c1C(C)O (stereo partly drawn)
pIC50: 7.10

Molecule: Cc1ccc(S(=O)(=O)N[C@H](c2n[nH]c(=O)o2)[C@H](C)c2c(F)ccc3ccccc23)c(C(N)=O)c1
pIC50: 6.77

Molecule: COc1nc(Cl)ccc1S(=O)(=O)N[C@H](c1n[nH]c(=O)o1)[C@H](C)c1c(F)ccc(C)c1C
pIC50: 7.00

Molecule: CC(=O)N1CCN(S(=O)(=O)N[C@H](c2n[nH]c(=O)o2)C(C)c2c(F)ccc(C)c2C)CC1 (stereo partly drawn)
pIC50: 5.00 to 6.00

Molecule: Cc1ccc(F)c([C@@H](C)[C@@H](c2n[nH]c(=O)o2)N2CC(O)c3cc(Cl)ccc3S2(=O)=O)c1C (stereo partly drawn)
pIC50: 6.00 to 7.00

For the molecule shown here, Cc1ccc(F)c([C@@H](C)[C@@H](c2n[nH]c(=O)o2)N2CCCc3cc(Cl)ccc3S2(=O)=O)c1C , give the reported pIC50. ≥ 7.00

Cc1ccc(F)c([C@@H](C)[C@@H](c2n[nH]c(=O)o2)N2CN(C)c3cc(Cl)cc(CO)c3S2(=O)=O)c1C , same question. > 7.70

Cc1ccc(F)c([C@@H](C)[C@H](NS(=O)(=O)N2CCC(Cl)(Cl)CC2)c2n[nH]c(=O)o2)c1C , same question. ≥ 7.00

Cc1ccc(F)c([C@@H](C)[C@@H](c2n[nH]c(=O)o2)N2CCOc3cc(Cl)ccc3S2(=O)=O)c1C , same question. > 7.70

CCc1ccc(S(=O)(=O)N[C@H](c2n[nH]c(=O)o2)[C@H](C)c2c(F)ccc(C)c2C)c(C(N)=O)c1 , same question. 6.89

Cc1ccc(F)c([C@@H](C)[C@@H](c2n[nH]c(=O)o2)N2CCOc3cc(Cl)cc(C(N)=O)c3S2(=O)=O)c1C , same question. > 7.70

Cc1ccc(F)c([C@@H](C)[C@H](NS(=O)(=O)c2ccc(Br)cc2OC(F)(F)F)c2n[nH]c(=O)o2)c1C , same question. 7.00

====

Listed below are compounds with IC50 for RNR (RNR1:RNR2 1:1) (Homo sapiens), each taken from published literature.

Compound: Cc1ccc(F)c([C@@H](C)[C@@H](c2n[nH]c(=O)o2)N2CCc3cc(Cl)ccc3S2(=O)=O)c1C
IC50: ≤ 100 nM

Compound: CC(=O)c1c(Cl)ccc2c1N(C)CN([C@H](c1n[nH]c(=O)o1)[C@H](C)c1c(F)ccc(C)c1C)S2(=O)=O
IC50: 20 to 100 nM

Compound: Cc1ccc(F)c([C@@H](C)[C@@H](c2n[nH]c(=O)o2)N2CN(CCCO)c3nc(Cl)ccc3S2(=O)=O)c1C
IC50: < 20 nM

Compound: Cc1ccc(F)c([C@@H](C)[C@H](NS(=O)(=O)c2ccccc2C(N)=O)c2n[nH]c(=O)o2)c1C
IC50: 260 nM

Compound: Cc1ccc(F)c([C@H](C)[C@@H](c2n[nH]c(=O)o2)N2CCCc3cc(Cl)ccc3S2(=O)=O)c1C
IC50: 10000 to 100000 nM

Compound: CC(O)c1c(Cl)ccc(S(=O)(=O)N[C@H](c2n[nH]c(=O)o2)[C@H](C)c2cccc3c2CCC3)c1Cl (stereo partly shown)
IC50: 170 nM

For the compound shown here, CC(=O)[C@@H]1CCCCN1S(=O)(=O)N[C@H](c1n[nH]c(=O)o1)[C@H](C)c1c(F)ccc(C)c1C , give the reported IC50. 10000 to 100000 nM

====

Listed below are compounds with pIC50 for RNR (RNR1:RNR2 1:1) (Homo sapiens, UniProt P23921), each taken from published literature.
pIC50: −log10 of the molar value.

Use the examples below as a reference point.
Compound: Cc1ccc(F)c(C(C)[C@H](NS(=O)(=O)N2CCC(c3ncc[nH]3)CC2)c2n[nH]c(=O)o2)c1C (stereo partly shown)
Measurement kind: pIC50
Measured value: 5.00 to 6.00
//
Compound: Cc1ccc(F)c([C@H](C)[C@H](NS(=O)(=O)N2CCC3(CC2)CC(=O)N(C)C3)c2n[nH]c(=O)o2)c1C
Measurement kind: pIC50
Measured value: 4.00 to 5.00
//
Compound: Cc1ccc(F)c([C@@H](C)[C@@H](c2n[nH]c(=O)o2)N2CCc3nc(Cl)ccc3S2(=O)=O)c1C
Measurement kind: pIC50
Measured value: ≥ 7.00

Okay, next one:
For the compound shown here, C[C@H](c1cccc2c1CCC2)[C@H](NS(=O)(=O)c1ccc(F)c(C(C)(C)O)c1F)c1n[nH]c(=O)o1 , give the reported pIC50. 6.26

====

Listed below are compounds with IC50 for RNR (RNR1:RNR2 1:1) (Homo sapiens, UniProt P23921), each taken from published literature.

Compound: C#CC1CCN(S(=O)(=O)N[C@H](c2n[nH]c(=O)o2)[C@H](C)c2c(F)ccc(C)c2C)CC1
Measured value: 1 to 10 µM

Compound: Cc1cccc(F)c1[C@@H](C)[C@H](NS(=O)(=O)c1ccc(Cl)cc1C(N)=O)c1n[nH]c(=O)o1
Measured value: 0.34 µM

Compound: Cc1ccc(F)c([C@@H](C)[C@@H](c2n[nH]c(=O)o2)N2CN(CCN3CCOCC3)c3cc(Cl)ccc3S2(=O)=O)c1C
Measured value: < 0.02 µM

For the compound shown here, Cc1ccc(F)c(C(C)[C@H](NS(=O)(=O)N2CCC(C3CC3)CC2)c2n[nH]c(=O)o2)c1C (stereo partly drawn) , give the reported IC50. 1 to 10 µM

Cc1ccc(F)c([C@@H](C)[C@H](NS(=O)(=O)c2ccc(Cl)c3c2OCCC3N)c2n[nH]c(=O)o2)c1C (stereo partly drawn) , same question. 0.13 µM

Cc1ccc(F)c([C@@H](C)[C@@H](c2n[nH]c(=O)o2)N2CN([C@@H]3CCN(C)C3)c3cc(Cl)ccc3S2(=O)=O)c1C , same question. < 0.02 µM

Cc1ccc(F)c([C@@H](C)[C@@H](c2n[nH]c(=O)o2)N2CN(C)c3cc(Cl)cc(C(=O)N(C)C)c3S2(=O)=O)c1C , same question. 1 to 10 µM

C=C(c1c(F)ccc(C)c1C)[C@H](NS(=O)(=O)c1ccc(Cl)cc1OC)c1n[nH]c(=O)o1 , same question. 0.6 µM

COC(=O)c1cc(Cl)cc2c1S(=O)(=O)N([C@H](c1n[nH]c(=O)o1)[C@H](C)c1c(F)ccc(C)c1C)CCO2 , same question. 0.1 to 1 µM

====

Listed below are compounds with IC50 for RNR (RNR1:RNR2 1:1) (Homo sapiens, UniProt P23921), each taken from published literature.

Compound: Cc1ccc(F)c(C(C)[C@H](NS(=O)(=O)N2CCC(OC(F)(F)F)CC2)c2n[nH]c(=O)o2)c1C (stereo partly drawn)
IC50: 1 to 10 µM
--
Compound: Cc1ccc(F)c([C@@H](C)[C@@H](c2n[nH]c(=O)o2)N2CN(CC(F)F)c3nc(Cl)ccc3S2(=O)=O)c1C
IC50: < 0.02 µM

For the compound shown here, Cc1ccc(F)c([C@@H](C)[C@H](NS(=O)(=O)c2ccc(Cl)c(C(N)=O)n2)c2n[nH]c(=O)o2)c1C , give the reported IC50. 0.1 µM

Cc1ccc(F)c([C@@H](C)[C@@H](c2n[nH]c(=O)o2)N2CN(C)c3cc(Cl)cc(C(N)=O)c3S2(=O)=O)c1C , same question. < 0.02 µM

COCc1cc2c(cc1Cl)OCCN([C@H](c1n[nH]c(=O)o1)[C@H](C)c1c(F)ccc(C)c1C)S2(=O)=O , same question. 1 to 10 µM

CC(=O)c1cc(Cl)cc2c1S(=O)(=O)N([C@H](c1n[nH]c(=O)o1)[C@@H](C)c1c(F)ccc(C)c1C)CO2 , same question. 1 to 10 µM
